# SYSTEM_NAME: TAAR3 (Mus musculus, UniProt Q5QD16)
# Construct: transiently expressed with Galpha-olf in HEK293 cells
# Sequence (Q5QD16 whole entry): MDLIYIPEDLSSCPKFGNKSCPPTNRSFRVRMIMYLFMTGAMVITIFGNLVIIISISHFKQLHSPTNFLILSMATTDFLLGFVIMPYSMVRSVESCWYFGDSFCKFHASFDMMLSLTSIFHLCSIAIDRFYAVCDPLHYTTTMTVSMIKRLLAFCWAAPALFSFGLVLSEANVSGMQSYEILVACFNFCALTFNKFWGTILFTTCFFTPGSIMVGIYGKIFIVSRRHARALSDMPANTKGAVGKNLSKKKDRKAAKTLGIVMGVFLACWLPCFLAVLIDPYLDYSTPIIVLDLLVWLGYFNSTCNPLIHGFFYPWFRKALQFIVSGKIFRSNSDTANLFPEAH
# ASSAY: cAMP accumulation, HEK293 cells, luminescence
VALUE_TYPE: EC50 (µM)
The reply should be a number in µM, with the unit left off.

Could you share which EC50 value was measured for CC(C)CN ?
0.032
